Source of measurements: patent US9005581B2

- experimentNotes: Non-invasive optical pharmacokinetic studies (fluorescence at the ear)
- Format: in vivo, Sprague-Dawley rats
- details: rat ear fluorescence, 1 mL of 2 mM solution into tail vein; mean ± SEM (n)
Could you please report measured Tissue Clearance (Optical) T1/2β for the items listed next?

Query: Would you kindly share the measured Tissue Clearance (Optical) T1/2β for `COCCOCCOCCOCCOCCOCCOCCOCCCNc1nc(C(=O)NCCOCCOCCOCCOCCOCCOCCOCCOCCOCCOCCOCCOCCOCCOCCOCCOCCOCCOCCOCCOCCOCCOCCOCCOC)c(NCCCOCCOCCOCCOCCOCCOCCOCCOC)nc1C(=O)NCCOCCOCCOCCOCCOCCOCCOCCOCCOCCOCCOCCOCCOCCOCCOCCOCCOCCOCCOCCOCCOCCOCCOCCOC` ?
Response: 19.1 ± 0.8 (4) min

Query: Would you kindly share the measured Tissue Clearance (Optical) T1/2β for `COCCOCCOCCOCCOCCOCCOCCOCCOCCOCCOCCOCCOCCOCCOCCOCCOCCOCCOCCOCCOCCOCCOCCOCCCNc1nc(C(=O)NCCOCCOCCOCCOCCOCCOCCOCCOCCOCCOCCOCCOCCOCCOCCOCCOCCOCCOCCOCCOCCOCCOCCOCCOC)c(NCCCOCCOCCOCCOCCOCCOCCOCCOCCOCCOCCOCCOCCOCCOCCOCCOCCOCCOCCOCCOCCOCCOCCOCCOC)nc1C(=O)NCCOCCOCCOCCOCCOCCOCCOCCOCCOCCOCCOCCOCCOCCOCCOCCOCCOCCOCCOCCOCCOCCOCCOCCOC` ?
Response: 17.6 ± 0.9 (4) min

Query: Would you kindly share the measured Tissue Clearance (Optical) T1/2β for `COCCOCCOCCOCCOCCOCCOCCOCCOCCOCCOCCOCCCNc1nc(C(=O)NCCOCCOCCOCCOCCOCCOCCOCCOCCOCCOCCOCCOCCOCCOCCOCCOCCOCCOCCOCCOCCOCCOCCOCCOC)c(NCCCOCCOCCOCCOCCOCCOCCOCCOCCOCCOCCOCCOC)nc1C(=O)NCCOCCOCCOCCOCCOCCOCCOCCOCCOCCOCCOCCOCCOCCOCCOCCOCCOCCOCCOCCOCCOCCOCCOCCOC` ?
Response: 20.4 ± 2.0 (4) min

Query: Would you kindly share the measured Tissue Clearance (Optical) T1/2β for `COCCOCCOCCOCCOCCOCCOCCOCCOCCOCCOCCOCCCNc1nc(C(=O)NCCOCCOCCOCCOCCOCCOCCOCCOCCOCCOCCOCCOC)c(NCCCOCCOCCOCCOCCOCCOCCOCCOCCOCCOCCOCCOC)nc1C(=O)NCCOCCOCCOCCOCCOCCOCCOCCOCCOCCOCCOCCOC` ?
Response: 19.9 ± 2.4 (3) min

Query: Would you kindly share the measured Tissue Clearance (Optical) T1/2β for `COCCOCCOCCOCCCNc1nc(C(=O)NCCOCCOCCOCCOCCOCCOCCOCCOCCOCCOCCOCCOCCOCCOCCOCCOCCOCCOCCOCCOCCOCCOCCOCCOC)c(NCCCOCCOCCOCCOC)nc1C(=O)NCCOCCOCCOCCOCCOCCOCCOCCOCCOCCOCCOCCOCCOCCOCCOCCOCCOCCOCCOCCOCCOCCOCCOCCOC` ?
Response: 14.6 ± 1.1 (4) min
